In this section, each of the molecules is paired with its reported melting point.

| Molecule | melting point |
| --- | --- |
| CN1NC(c2ccccc2)C2=C1c1ccccc1C2=O (centres unmarked) | 187 to 188 °C |
| COc1ccc(-c2n[nH]c3c2C(O)c2ccccc2-3)cc1OC (centres unmarked) | 197 to 199 °C |
| COc1cc(-c2n[nH]c3c2C(=O)c2ccccc2-3)cc(OC)c1OC | 268 to 272 °C |
| O=C1c2ccccc2-c2[nH]nc(-c3ccc(Cl)cc3)c21 | > 330 °C |
| OC1c2ccccc2-c2[nH]nc(-c3ccccc3)c21 (centres unmarked) | 269 to 272 °C |

----------
Measured Target: KDR (Homo sapiens)
Construct: HUVEC cells (from pooled donors) were purchased from Clonetics (San Diego, Calif.) and cultured according to the manufacturer directions
Sequence (P35968 20-1356): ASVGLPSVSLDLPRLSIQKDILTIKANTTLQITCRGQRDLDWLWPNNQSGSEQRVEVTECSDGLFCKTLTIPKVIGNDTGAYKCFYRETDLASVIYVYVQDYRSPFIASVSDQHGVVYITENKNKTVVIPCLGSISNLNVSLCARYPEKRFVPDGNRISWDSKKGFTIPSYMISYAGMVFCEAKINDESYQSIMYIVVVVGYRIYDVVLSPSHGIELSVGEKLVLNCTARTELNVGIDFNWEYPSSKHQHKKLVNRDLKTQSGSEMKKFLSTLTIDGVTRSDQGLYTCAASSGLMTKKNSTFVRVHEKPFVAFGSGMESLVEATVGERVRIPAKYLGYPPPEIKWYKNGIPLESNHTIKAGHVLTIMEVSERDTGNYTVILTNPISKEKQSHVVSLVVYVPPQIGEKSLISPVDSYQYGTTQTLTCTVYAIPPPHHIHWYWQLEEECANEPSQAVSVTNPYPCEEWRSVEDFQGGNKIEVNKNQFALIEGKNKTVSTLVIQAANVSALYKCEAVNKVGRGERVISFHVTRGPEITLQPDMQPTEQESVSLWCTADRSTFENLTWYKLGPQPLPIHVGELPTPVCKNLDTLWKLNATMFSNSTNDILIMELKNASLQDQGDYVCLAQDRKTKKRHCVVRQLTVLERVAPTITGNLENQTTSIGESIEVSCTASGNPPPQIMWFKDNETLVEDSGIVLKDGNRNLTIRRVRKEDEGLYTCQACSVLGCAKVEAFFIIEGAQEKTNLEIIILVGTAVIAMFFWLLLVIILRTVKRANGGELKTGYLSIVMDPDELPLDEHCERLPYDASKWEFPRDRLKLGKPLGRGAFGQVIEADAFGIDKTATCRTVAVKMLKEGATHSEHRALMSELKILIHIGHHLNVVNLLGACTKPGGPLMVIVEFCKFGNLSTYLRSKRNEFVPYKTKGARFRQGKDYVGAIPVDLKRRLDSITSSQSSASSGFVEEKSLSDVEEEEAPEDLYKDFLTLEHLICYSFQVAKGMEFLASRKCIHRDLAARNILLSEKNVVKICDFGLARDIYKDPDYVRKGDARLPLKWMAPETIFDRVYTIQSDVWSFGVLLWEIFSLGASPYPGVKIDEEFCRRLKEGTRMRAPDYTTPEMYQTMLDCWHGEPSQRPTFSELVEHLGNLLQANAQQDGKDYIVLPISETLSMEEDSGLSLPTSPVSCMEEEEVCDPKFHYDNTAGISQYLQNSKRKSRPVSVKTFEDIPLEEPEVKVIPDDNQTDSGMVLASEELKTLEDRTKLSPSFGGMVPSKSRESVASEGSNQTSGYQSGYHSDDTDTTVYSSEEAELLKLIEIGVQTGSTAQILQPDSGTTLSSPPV
Test Protocol: VEGF-induced KDR phosphorylation in HUVEC measured by Western blots
Test Settings: VEGF(165) 50 ng/ml, Western blot, read-out: cellular IC50 (VEGF-induced KDR phosphorylation)
Description: A. VEGF-Induced KDR Phosphorylation in Human Umbilical Vein Cells (HUVEC) as Measured by Western Blots. 1. HUVEC cells (from pooled donors) were purchased from Clonetics (San Diego, Calif.) and cultured according to the manufacturer directions. Only early passages (3-8) were used for this assay. Cells were cultured in 100 mm dishes (Falcon for tissue culture; Becton Dickinson; Plymouth, England) using complete EBM media (Clonetics). 2. […]
Reported Metric: IC50 (µM)

| Compound | Reported Metric | Recorded Value |
| --- | --- | --- |
| O=C1c2ccccc2-c2[nH]nc(-c3ccccc3)c21 [3-phenylindeno[1,2-c]pyrazol-4(1H)-one] | IC50 | 3 |
